FYI, the data here is from patent US11873298B2.

Task for the reader: assign each of the following compounds its reported IC50.
- target: SCD5 (Homo sapiens)
- Construct: host or cells: S. cerevisiae ole1Δ strain (W303 pdr1Δ pdr3Δ background), plasmid pRS316 with TDH3 promoter and CYC1 terminator
- Sequence (Q86SK9 whole entry): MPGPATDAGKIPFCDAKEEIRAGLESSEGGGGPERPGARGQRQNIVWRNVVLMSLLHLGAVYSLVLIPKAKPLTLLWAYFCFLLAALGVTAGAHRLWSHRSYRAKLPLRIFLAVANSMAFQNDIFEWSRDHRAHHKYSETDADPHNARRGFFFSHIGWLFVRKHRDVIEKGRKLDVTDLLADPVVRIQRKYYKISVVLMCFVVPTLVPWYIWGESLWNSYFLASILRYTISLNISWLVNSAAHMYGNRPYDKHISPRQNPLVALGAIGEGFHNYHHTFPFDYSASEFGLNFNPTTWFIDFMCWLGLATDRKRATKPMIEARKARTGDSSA
- assay_method_text: Growth inhibition of humanized yeast strain expressing SCD5 as sole desaturase
- Format: cell-based
- condition_parameters: humanized yeast strain, 40 h
- Protocol: Strain oleΔ (yeast ole1 deletion mutant) was constructed by deleting OLE1 with NAT-MX6 in BY4741, amplifying the deletion cassette from the genomic DNA of the resulting strain with primers flanking the ORF by 1000 bp upstream and downstream, transforming the resulting deletion cassette into W303 pdr1Δ pdr3Δ, and plating transformants on YPD media containing G418 (200 μg/mL) and nourseothricin ([…]) with 0.01% TWEEN®-20 and 0.5 mM oleic and palmitoleic acids. […]

Please report IC50 for every entry that follows.
1. CCC(=O)N1CCC(c2noc(-c3ccccc3N3CCOCC3)n2)CC1
2. O=C(C1CC1)N1CCN(c2nnc(-c3ccc4cnn(C5COC5)c4c3)o2)CC1
3. c1cc2cnn(C3COC3)c2cc1-c1nc(C2CCCNCC2)no1 (stereo not drawn)

> 45 µM
> 45 µM
> 45 µM
